Origin of measurements: PubChem BioAssay (NCI)

test: NCI Yeast Anticancer Drug Screen. Data for the sgs1 mgt1 strain (AID 161);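 note: 0% = growth of cultures given vehicle only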; settings: S. cerevisiae sgs1 mgt1 strain, at 50.0 µM (retest, dose inferred, filed as 5.0), stronger effect = higher value
This is part of a sample that, as a whole, favours compounds with a hit. Of some 79,000 tested, about 15% had one in any assay. Calls of active or inactive are those of the source. Cut-off read from the data, not from the text of the source: active = growth inhibition above about 70%; inactive = the rest.
endpointName: growth inhibition

The reported growth inhibition of the molecule O=C1C(Cl)=C(N2C(=O)CCCC2=O)C(=O)c2ccccc21 was 99% (active)

The reported growth inhibition of the molecule O=C1C(Cl)=C(Cl)C(=C2C(Cl)=C(Cl)C(=O)C(Cl)=C2Cl)C(Cl)=C1Cl was 99% (active)

Summary for this molecule, COC(=O)C(CCC(=O)Cc1ccccc1)N1C(=O)c2ccccc2C1=O (stereo unspecified) : growth inhibition is 87% (active)

Looking up C/C(=N/NC(=S)Nc1ccc(C)cc1)c1ccccn1 , I see its growth inhibition listed as 99% (active)

Lookup result for O=C(/C=C/c1ccccc1Cl)c1ccc(F)cc1 ; measured growth inhibition: -4% (inactive)

For reference, reported growth inhibition for O=C1NC(=O)c2cccc3cccc1c23 stands at 37% (inactive)

response.value for O=C1OC2(c3ccc(O)cc3Oc3cc(O)ccc32)c2c1c(-c1ccccc1)c(-c1ccccc1)c(-c1ccccc1)c2-c1ccccc1 (field: growth inhibition) = 50% (inactive)

growth inhibition in this record for CCCCCCCCCCCCCCCCS(=O)(=O)Cl : 77% (active)

Entry COc1cc(C2c3cc4c(cc3[C@@H](Nc3cccc(O)c3)C3COC(=O)[C@H]23)OCO4)cc(OC)c1O (stereo partly specified) — recorded growth inhibition = 97% (active)

For reference, reported growth inhibition for O=C1NC(O)c2cccc(Cl)c2O1 (stereo unspecified) stands at 99% (active)

Form field growth inhibition, entry CCOC(=O)C(NC(C)=O)[CH](c1ccccc1)[Sn]([Cl])([c]1ccccc1)[c]1ccccc1 (stereo unspecified) : -5% (inactive)

###

Could you please report measured growth inhibition for the items listed next?
test: NCI Yeast Anticancer Drug Screen. Data for the mlh1 rad18 strain (AID 175); conditions: S. cerevisiae mlh1 rad18 strain growth inhibition; at 5.0 µM (retest, dose inferred, filed as 0.5); stronger effect = higher value
The panel holds about 79,000 compounds, 15% with a hit somewhere; the sample as a whole holds those more often.
Report the figure in % without appending any unit label.

Given item CC1SC2=NC3=C(c4ccccc4C3=O)C(c3ccc(Cl)cc3)N2C1=O (stereo not drawn) , the value recorded as its growth inhibition is -17

growth inhibition measured on COC(=O)c1cc(=O)n(-c2ccccc2C(F)(F)F)c(SC)n1 = 39

// recorded growth inhibition for CSc1ccc(C(=O)C(=O)c2ccc(SC)s2)s1 : 4

Briefly, growth inhibition measured for O=C(C[P+](c1ccccc1)(c1ccccc1)c1ccccc1)c1ccc(Br)cc1 : 69

Entry CC1C/C(=C\c2ccc(O)c(O)c2)C(=O)/C(=C/c2ccc(O)c(O)c2)C1 (stereo not drawn) , growth inhibition reported as 27

Form: compound = O=C(/C=C\C(=O)Nc1cccc(N(Cc2ccccc2)Cc2ccccc2)c1)Nc1cccc(N(Cc2ccccc2)Cc2ccccc2)c1 ; growth inhibition = -3

The compound CC(=O)Oc1ccc2ccccc2c1CN(Cc1c(OC(C)=O)ccc2ccccc12)C(C)=O showed growth inhibition equal to 11

// COC(=O)/C=C1/OC(c2ccccc2)=CC1=O : growth inhibition value = 9

GET /value?item= O=[N+]([O-])c1ccccc1C(c1ccc2ccccc2c1O)N1CCOCC1 (stereo not drawn) &field=growth inhibition returns 98

compound CSC(=S)N/N=C/c1cccc(C)n1 , growth inhibition observed: 30

Lab note: measured growth inhibition of CN(C)c1nc(N(C)C)nc([N+](C)(C)C)n1 was -5

For this compound ( Nc1ccc(S(=O)(=O)NCc2nccs2)cc1 ), measured growth inhibition is 11

// growth inhibition value for CCCCCC(C1SC(=S)NC1=O)C1SC(=S)NC1=O (stereo not drawn) : 0

Sure, the documented growth inhibition for Cc1ccc(SCN2CCCCC2)cc1 (tested in a mixture with another compound) is 20

Per the records, this compound ( CC(C)c1ccc(N2C(=O)C=CC2=O)cc1 ) has growth inhibition equal to 95

For reference, reported growth inhibition for CCCCCCCCCCOC(=O)c1ccccn1 stands at -2

Value of measured growth inhibition for the entry COC(=O)c1nc(N)nc(C(=O)OC)c1C(=O)c1ccccc1 : -2

growth inhibition reading for COc1ccc(C2=C/C(=C3\C(=O)Oc4ccccc4C3=O)SS2)cc1 : -2

Value of measured growth inhibition for the entry c1ccc2sc(SSN3CCOCC3)nc2c1 : 34

Given item Brc1ccc(N2COc3ccc4ccccc4c3C2)cc1 , the value recorded as its growth inhibition is 16

For reference, reported growth inhibition for O=C(Nc1ccc(O)cc1O)c1ccccc1 stands at 3

Input C[C@]12C[C@H](c3ccccc3)Nc3ccccc3N1C(c1ccccc1)=NO2 . Output growth inhibition: -8

Looking up CCCCOC(=O)c1ccc(S(=O)(=O)c2ccc(C(=O)OCCCC)cc2)cc1 , I found its growth inhibition recorded as 2

Sample COc1cccc(C2c3cc4c(cc3OC(O)C2C)OCO4)c1O (stereo not drawn) ; growth inhibition observed: -7

The compound identified as CCC(=O)NC1=CCC(C(C)(C)C)CC1 (stereo not drawn) registered its growth inhibition at 0

For CCOC(=O)c1ccc(N(CCC(O)CN=[N+]=[N-])S(=O)(=O)c2ccc(C)cc2)cc1 (stereo not drawn) the compound record lists growth inhibition as 29

Noted for Nc1nnc(CCC(=O)Nc2ccccc2Cl)o1 : its growth inhibition reads -5

// field: growth inhibition; key: Cc1cc(Br)c(NC(=O)CBr)cc1C ; value = -2

get_value(item= O=C(CC1C(=O)c2ccccc2C1=C1C(=O)c2ccccc2C1=O)c1ccccc1 (stereo not drawn) , readout=growth inhibition) returns -3

The compound listed as CC(=O)C1C(=O)C=C(C)OC1=O (stereo not drawn) shows growth inhibition equal to 4

Noted for Cc1ccc(Cl)cc1NN : its growth inhibition reads 5

// COc1ccc2c(c1)nc1cc(Cl)ccc1[n+]2C : growth inhibition value = 5

Short answer for NC(CCCCCC(N)C(=O)O)C(=O)O (stereo not drawn) : growth inhibition was -241

The compound identified as CCOC(=O)c1ccc2c(c1)Cc1cc([N+](=O)[O-])ccc1-2 registered its growth inhibition at 7

The recorded growth inhibition for entry COC(=O)c1nc(=S)[nH]c(C(=O)OC)c1C(=O)C(C)(C)C equals 9

Cc1cccc2c(Nc3ccc(NS(C)(=O)=O)cc3)c3ccccc3nc12 yielded growth inhibition of -2

growth inhibition reading for CC(=O)OCC1OC(n2ncc3c(Sc4c([N+](=O)[O-])ncn4C)ncnc32)C(OC(C)=O)C1OC(C)=O (stereo not drawn) : 18

Entry O=C1CCCCCCC2=C1C(Sc1ccccc1)CC2 (stereo not drawn) ; growth inhibition = -13

Measured growth inhibition, CCCCCCCCCCCCNCC#N : 5

The compound identified as Cc1cc2c(cc1O)CC[C@@H]1[C@@H]2CC[C@]2(C)[C@@H](O)CC[C@@H]12 registered its growth inhibition at -35

The reported growth inhibition of the compound C=CS(=O)(=O)c1ccc([N+](=O)[O-])cc1 was 16

Value of growth inhibition reported for the compound COc1c(C(=O)/C(=N/Nc2ccccc2)C(C)=O)c(O)c(OC)c2occc12 is 2

The measured growth inhibition associated with CC(=O)c1c(O)ccc2nc3ccccc3nc12 reads 39

For CN(C)C(=S)N/N=C/c1ccccn1 the compound record lists growth inhibition as 95

Record summary for CC(c1ccccc1)n1c2ccccc2c2c(N)ncnc21 (stereo not drawn) : reported growth inhibition = 32

Data point: O=C(O)c1ccccc1C(=O)c1ccc2c(c1)Cc1ccccc1-2 ; growth inhibition = 3

According to the records, this compound N#Cc1c(-c2ccc(Cl)c(Cl)c2)c(-c2ccc(Cl)c(Cl)c2)nn(CCO)c1=O displays growth inhibition of 72

Record Nc1ccc(C(=O)/C=C/c2ccccn2)cc1 , field growth inhibition: 6

###

assay: NCI Yeast Anticancer Drug Screen. Data for the mec2-1 strain (AID 157); conditions: S. cerevisiae mec2-1 strain, at 50.0 µM (retest, dose inferred, filed as 5.0), stronger effect = higher value
This is part of a sample that, as a whole, favours compounds with a hit. Of some 79,000 tested, about 15% had one in any assay. Active and inactive are the calls of the source. Rule as the data show it: active = growth inhibition above about 70%; inactive = the rest.
endpointName: growth inhibition

Reported growth inhibition of CC1CCN(C(=S)NNC(C)c2cc3ccccc3cn2)CC1 (centres undefined) : 98% (active)

// field: growth inhibition; key: Cc1ccc(S(=O)(=O)NCCCSCCO)cc1 ; value = 91% (active)

Sample Oc1ccc(O)c2c1N=NC21c2ccccc2Oc2ccccc21 ; growth inhibition observed: 89% (active)

Entry CCN(CC)CCCCSc1ccc([N+](=O)[O-])cc1[N+](=O)[O-] — recorded growth inhibition = 36% (inactive)

Measured growth inhibition, CN1C(=O)CCC2[C@@H]3CC=C4C[C@@H](O)CC[C@]4(C)C3CC[C@@]21C (some centres undefined) : 11% (inactive)

Record CC(C)C(Br)CC/C(CBr)=C(\Cl)CCl (centres undefined) , field growth inhibition: 99% (active)

The measured growth inhibition associated with Cc1ccc([N+](=O)[O-])c2c(NCCCN(C)C)c3ccccc3nc12 reads 99% (active)

Recorded result, O=C(N/N=C/c1ccccc1O)c1ccccc1-n1cccc1 , growth inhibition: 53% (inactive)

Value of measured growth inhibition for the entry O=C(OCCCC(C(=O)c1ccccc1)=P(c1ccccc1)(c1ccccc1)c1ccccc1)c1ccccc1 : 99% (active)

growth inhibition measured on C=C(C)COc1ccccc1C(OCC)OCC = 19% (inactive)

Quick note, growth inhibition for CCOP(=O)(CCC(=O)[C@@]1(O)CC[C@H]2[C@@H]3CCC4=CC(=O)CC[C@]4(C)[C@H]3CC[C@@]21C)OCC landed at 5% (inactive)

The molecule listed as C=CCC1=C(C)C(OC(=O)/C=C/c2ccccc2Cl)CC1=O (centres undefined) shows growth inhibition equal to 88% (active)

growth inhibition in this record for COc1cc(/C=C2/C(=O)N(C(=O)c3ccccc3O)N=C2C)cc(OC)c1OC : 35% (inactive)

growth inhibition in this record for Cc1cccc2c(=O)c3ccccc3oc12 : 11% (inactive)

Measured growth inhibition, Nc1ccccc1C(=O)/C=C/c1ccccc1 : 57% (inactive)

Noted for Oc1cccc(-c2nc(-c3ccccc3)c(-c3ccccc3)[nH]2)c1 : its growth inhibition reads 22% (inactive)

In plain terms, CC12CC(O)C3C(CCC4CCCCC43C)C1CC/C2=N/O (centres undefined) has a documented growth inhibition of 7% (inactive)

Entry CCC(=O)NC1=CCC(C(C)(C)C)CC1 (centres undefined) — recorded growth inhibition = 4% (inactive)

Measured growth inhibition, C1=C(c2ccccc2)OC(c2ccccc2)=C[P+]1(c1ccccc1)c1ccccc1 : 99% (active)

Sample O=C(Oc1ccccc1)c1ccc2ccccc2c1O ; growth inhibition observed: -35% (inactive)

// sample NC(=O)C(CCc1cccc2ccccc12)c1ccccc1 (centres undefined) , its growth inhibition was -6% (inactive)

# growth inhibition (molecule: Nc1nc(-c2ccccn2)cc2cc(Cl)ccc12 ) is 100% (active)

Record summary for O=C1c2ccc3ccccc3c2CCC1[n+]1ccc2ccccc2c1 (centres undefined) : reported growth inhibition = 76% (active)

# molecule O=c1c(-c2ccccc2)coc2cc(O)ccc12 ; its growth inhibition = 23% (inactive)
